- Test system: Plasmodium berghei
- Test Summary: Screen against P. berghei liver stage (PbLuc), transformed with Luciferase, at 10uM
- Type: functional, HepG2
- Study Conditions: tested at 10 uM
Out of some 69,000 compounds screened, about 8,600 (12%) showed an effect of 50% or more. This excerpt belongs to a sample that is enriched for strong results.
hey, just use y if measured INHIBITION is less than 20%, otherwise n

Take a look at these entries with their results.
Does this compound meet the criterion INHIBITION < 20%? OC(CNCCn1cccn1)c1cccc(Br)c1 (configuration not stated) y

Also, O=C(NCCCN1CCOCC1)c1ccn(COc2ccc(F)cc2)n1 please. y

Also, O=C(c1nc(Cc2c[nH]c3ccccc23)no1)N1CCOCC1 please. n

Also, O=C(c1cc[nH]n1)N1CCC(F)(F)C2(CCN(c3ccccn3)C2)C1 (configuration not stated) please. n

Also, Cn1c(CCC(=O)N2CCCC3(CNC(=O)O3)C2)nc2cccnc21 (configuration not stated) please. n

Also, Cc1ccc(CN2C[C@H](OCCN(C)C)[C@H]3COC[C@H]32)o1 please. y

Note: attention shifts to another entry.
Does this compound meet the criterion INHIBITION < 20%? O=C(c1nc(Cc2c[nH]c3ccccc23)no1)N1CCCC1 n

====

- Test system: Plasmodium berghei
- Test Summary: Screen against P. berghei liver stage (PbLuc), transformed with Luciferase, at 10uM
- Type: functional, HepG2
- Study Conditions: tested at 10 uM
About 8,600 (12%) of roughly 69,000 compounds showed an effect of 50% or more. This is one part of a sample in which strong results are shown more often than they occur.
Endpoint Label: INHIBITION (%)
Dear colleague, please return just the value in %, with no unit written.

What INHIBITION value was documented for this molecule, O=c1c(=CS(=O)(=O)Nc2ccc(Cl)cc2)[nH]c(=O)n2cccc12 ? -51.6

Also, CN(C)C(=O)N1C[C@@H]2COC[C@]2(CNS(C)(=O)=O)C1 please. 14.2

Also, CCS(=O)(=O)NCCCNCc1c(C)nn(C)c1N(C)C please. 23.25

Continuing:
What INHIBITION value was documented for this molecule, COC1C[C@@H]2CN(C(=O)c3cc4ccc(F)cc4[nH]3)C[C@@H]2C1 (stereo not given in full) ? -36.1

Also, COc1ccc(NS(=O)(=O)C=c2[nH]c(=O)n3cccc3c2=O)cc1Cl please. 86.4

====

- System: Plasmodium berghei
- Test Summary: Screen against P. berghei liver stage (PbLuc), transformed with Luciferase, at 10uM
- Assay type: functional, HepG2
- Study Conditions: tested at 10 uM
In all, about 69,000 compounds went through this assay and about 8,600 (12%) showed an effect of 50% or more. What follows is part of a selection rich in strong results, with near analogues and random picks from the rest.
Would you mind labelling by INHIBITION? At or over 30% is MET, under is NOT MET.

Is it the case that CC(C)(C)C(=O)NC(c1nccs1)C1CCN(CC2CCCCC2)CC1 (stereo not given) has INHIBITION reaching or exceeding 30%? MET

Also, CN(C)c1cc(CNc2ccc(S(=O)(=O)C(C)(C)C)nc2)ccn1 please. NOT MET

Also, CC1c2ncc(Cn3cncn3)n2CCN1C1CCOCC1 (stereo not given) please. NOT MET

Also, CCOCCCOC(=O)c1ccc2c(c1)[nH]c(=O)n2C please. NOT MET

Also, CCCOCCOC(=O)c1ccc2c(c1)[nH]c(=O)n2C please. NOT MET
